System: Escherichia coli TOP10
assayName: shrunken log2 fold change of peptide-encoding DNA abundance (4.5 h post-induction vs induction); higher = less antimicrobial activity (less host growth inhibition)
measurementConditions: time post-induction: 4.5 h; library: site-saturation at positions 5, 18, 19, 20
Task for the reader: assign each of the following sequences its reported shrunken log2 fold change.
Give your answer as a number; write no unit.

input: For the sequence RRIRCRPPRLPRPRPRPEKNPRP , what shrunken log2 fold change is on record?
output: 0.165

input: For the sequence RRIRDRPPRLPRPRPRPVFVPRP , what shrunken log2 fold change is on record?
output: 0.225

input: For the sequence RRIRCRPPRLPRPRPRPRLAPRP , what shrunken log2 fold change is on record?
output: 0.559

input: For the sequence RRIRCRPPRLPRPRPRPFPDPRP , what shrunken log2 fold change is on record?
output: -0.415

input: For the sequence RRIRPRPPRLPRPRPRPPQMPRP , what shrunken log2 fold change is on record?
output: 0.531

input: For the sequence RRIRFRPPRLPRPRPRPNCGPRP , what shrunken log2 fold change is on record?
output: -0.0249

input: For the sequence RRIRARPPRLPRPRPRPFCSPRP , what shrunken log2 fold change is on record?
output: -0.0878

input: For the sequence RRIRKRPPRLPRPRPRPCVFPRP , what shrunken log2 fold change is on record?
output: 0.204

input: For the sequence RRIRRRPPRLPRPRPRPAWEPRP , what shrunken log2 fold change is on record?
output: 0.301

input: For the sequence RRIRPRPPRLPRPRPRPNRWPRP , what shrunken log2 fold change is on record?
output: 0.106

input: For the sequence RRIRLRPPRLPRPRPRPGEEPRP , what shrunken log2 fold change is on record?
output: 0.143

input: For the sequence RRIRTRPPRLPRPRPRPSMMPRP , what shrunken log2 fold change is on record?
output: -0.0802

input: For the sequence RRIRMRPPRLPRPRPRPKPMPRP , what shrunken log2 fold change is on record?
output: 1.14

input: For the sequence RRIRKRPPRLPRPRPRPPDHPRP , what shrunken log2 fold change is on record?
output: 0.973

input: For the sequence RRIRVRPPRLPRPRPRPTVAPRP , what shrunken log2 fold change is on record?
output: 0.37

---

System: Escherichia coli TOP10
assayName: shrunken log2 fold change of peptide-encoding DNA abundance (4.5 h post-induction vs induction); higher = less antimicrobial activity (less host growth inhibition)
measurementConditions: time post-induction: 4.5 h; library: site-saturation at positions 5, 18, 19, 20
Okay, here is how we bin by shrunken log2 fold change: lower segment = under -0.04, middle segment = from -0.04 up to 0.4, upper segment = 0.4 and over

input: Hey, which category is RRIRPRPPRLPRPRPRPFLEPRP in, do you know?
output: lower segment

input: Hey, which category is RRIRRRPPRLPRPRPRPMADPRP in, do you know?
output: middle segment

input: Hey, which category is RRIRERPPRLPRPRPRPHPEPRP in, do you know?
output: lower segment

input: Hey, which category is RRIRFRPPRLPRPRPRPESSPRP in, do you know?
output: middle segment

input: Hey, which category is RRIRVRPPRLPRPRPRPDKMPRP in, do you know?
output: lower segment

input: Hey, which category is RRIRYRPPRLPRPRPRPIVNPRP in, do you know?
output: lower segment

input: Hey, which category is RRIRRRPPRLPRPRPRPTCLPRP in, do you know?
output: middle segment

input: Hey, which category is RRIRVRPPRLPRPRPRPGWDPRP in, do you know?
output: middle segment

input: Hey, which category is RRIRIRPPRLPRPRPRPHLDPRP in, do you know?
output: middle segment

input: Hey, which category is RRIRLRPPRLPRPRPRPKEDPRP in, do you know?
output: lower segment

input: Hey, which category is RRIRRRPPRLPRPRPRPTHTPRP in, do you know?
output: upper segment

input: Hey, which category is RRIRFRPPRLPRPRPRPSVFPRP in, do you know?
output: lower segment

input: Hey, which category is RRIRVRPPRLPRPRPRPPTAPRP in, do you know?
output: upper segment

input: Hey, which category is RRIRNRPPRLPRPRPRPQTPPRP in, do you know?
output: middle segment

input: Hey, which category is RRIRYRPPRLPRPRPRPTCQPRP in, do you know?
output: lower segment

input: Hey, which category is RRIRRRPPRLPRPRPRPRDEPRP in, do you know?
output: upper segment

input: Hey, which category is RRIRWRPPRLPRPRPRPYIPPRP in, do you know?
output: lower segment

input: Hey, which category is RRIRARPPRLPRPRPRPSALPRP in, do you know?
output: upper segment

input: Hey, which category is RRIRTRPPRLPRPRPRPTGDPRP in, do you know?
output: upper segment

input: Hey, which category is RRIRKRPPRLPRPRPRPPVAPRP in, do you know?
output: upper segment

input: Hey, which category is RRIRKRPPRLPRPRPRPQWIPRP in, do you know?
output: middle segment

input: Hey, which category is RRIRIRPPRLPRPRPRPYPHPRP in, do you know?
output: lower segment

input: Hey, which category is RRIRARPPRLPRPRPRPGCDPRP in, do you know?
output: upper segment

input: Hey, which category is RRIRQRPPRLPRPRPRPALLPRP in, do you know?
output: middle segment

input: Hey, which category is RRIRLRPPRLPRPRPRPDNDPRP in, do you know?
output: lower segment

input: Hey, which category is RRIRCRPPRLPRPRPRPVAAPRP in, do you know?
output: upper segment

input: Hey, which category is RRIRRRPPRLPRPRPRPSQPPRP in, do you know?
output: middle segment

input: Hey, which category is RRIRMRPPRLPRPRPRPTTSPRP in, do you know?
output: upper segment

---

Test system: Escherichia coli TOP10;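 note: peptides expressed intracellularly from a pBAD plasmid library in pooled LB shake-flask culture, induced with 0.3% L-arabinose, DNA abundance read by NGS, three biological replicates, DESeq2 with apeglm shrinkage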
assayName: shrunken log2 fold change of peptide-encoding DNA abundance (4.5 h post-induction vs induction); higher = less antimicrobial activity (less host growth inhibition)
measurementConditions: time post-induction: 4.5 h; library: site-saturation at positions 5, 18, 19, 20
Task for the reader: assign each of the following sequences its reported shrunken log2 fold change.
Give your answer as a number; write no unit.

input: Quick check: shrunken log2 fold change on Escherichia coli TOP10, item RRIRSRPPRLPRPRPRPQISPRP ?
output: -0.00331

input: Quick check: shrunken log2 fold change on Escherichia coli TOP10, item RRIRVRPPRLPRPRPRPHQCPRP ?
output: 0.00485

input: Quick check: shrunken log2 fold change on Escherichia coli TOP10, item RRIRRRPPRLPRPRPRPYMGPRP ?
output: 0.00385

input: Quick check: shrunken log2 fold change on Escherichia coli TOP10, item RRIRFRPPRLPRPRPRPAQAPRP ?
output: 0.29

input: Quick check: shrunken log2 fold change on Escherichia coli TOP10, item RRIRSRPPRLPRPRPRPSSAPRP ?
output: -0.0109

input: Quick check: shrunken log2 fold change on Escherichia coli TOP10, item RRIRLRPPRLPRPRPRPLLYPRP ?
output: -0.326
